Target: Protein-glutamine gamma-glutamyltransferase (Homo sapiens, UniProt P21980)
Sequence (P21980 whole entry): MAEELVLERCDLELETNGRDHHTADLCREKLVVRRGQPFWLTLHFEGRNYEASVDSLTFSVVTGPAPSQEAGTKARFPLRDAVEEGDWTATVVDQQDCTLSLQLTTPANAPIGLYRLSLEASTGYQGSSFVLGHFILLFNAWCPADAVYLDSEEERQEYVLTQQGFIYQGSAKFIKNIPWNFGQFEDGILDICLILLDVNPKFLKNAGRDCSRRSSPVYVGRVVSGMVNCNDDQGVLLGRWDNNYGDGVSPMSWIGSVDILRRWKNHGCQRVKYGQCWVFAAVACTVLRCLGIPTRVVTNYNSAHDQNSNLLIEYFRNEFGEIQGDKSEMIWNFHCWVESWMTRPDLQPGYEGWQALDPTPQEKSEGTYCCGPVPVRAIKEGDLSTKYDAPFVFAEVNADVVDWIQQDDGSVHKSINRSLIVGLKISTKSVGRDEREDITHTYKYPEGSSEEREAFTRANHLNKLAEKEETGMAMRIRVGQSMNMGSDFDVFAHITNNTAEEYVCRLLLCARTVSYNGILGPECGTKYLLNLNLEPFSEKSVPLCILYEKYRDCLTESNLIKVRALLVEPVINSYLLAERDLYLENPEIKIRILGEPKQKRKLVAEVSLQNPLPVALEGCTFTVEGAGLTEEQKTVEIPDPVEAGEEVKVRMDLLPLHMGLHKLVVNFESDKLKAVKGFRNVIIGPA
Assay: Inhibition of human recombinant TG2 expressed in Escherichia coli
pKi: −log10 of the molar value.
propertyMeasured: pKi

compound	targetUnderTest	pKi
COc1ccc2[nH]cc(CC(NC(=O)OCc3cnc4ccccc4c3)C(=O)NCC3CC(Br)=NO3)c2c1 (centres undefined)	Protein-glutamine gamma-glutamyltransferase (Homo sapiens, UniProt P21980)	4.29

A: O=C(N[C@@H](Cc1ccc(O)cc1)C(=O)NCC1CC(Br)=NO1)OCc1cnc2ccccc2c1 (some centres undefined)
B: O=C(NC(Cc1c[nH]c2cc(F)ccc12)C(=O)NCC1CC(Br)=NO1)OCc1ccccc1 (centres undefined)
C: O=C(N[C@@H](Cc1c[nH]c2ccc(F)cc12)C(=O)NCC1CC(Br)=NO1)OCc1cnc2ccccc2c1 (some centres undefined)
D: O=C(N[C@@H](Cc1ccc(O)cc1)C(=O)NC[C@@H]1CC(Br)=NO1)OCc1ccccc1
stdin: Rank order required: pKi, descending. List the labels according to the requested ordering.
stdout: C, B, A, D

I: O=C(N[C@@H](Cc1ccc(O)cc1)C(=O)NC[C@@H]1CC(Br)=NO1)OCc1cnc2ccccc2c1
II: O=C(NC(Cc1c[nH]c2cccc(F)c12)C(=O)NCC1CC(Br)=NO1)OCc1ccccc1 (centres undefined)
stdin: Which has the higher pKi, I or II ? Mark your answer with the label of the selected entry.
stdout: I
(I: 4.52, II: 4.00)

P: O=C(NC(Cc1c[nH]c2ccc(O)cc12)C(=O)NCC1CC(Br)=NO1)OCc1cnc2ccccc2c1 (centres undefined)
Q: O=C(NC(Cc1c[nH]c2ccc(F)cc12)C(=O)NCC1CC(Br)=NO1)OCc1cnc2ccccc2c1 (centres undefined)
stdin: Looking at recorded values for pKi, does P or Q come in lower? Respond using the label that marks the chosen record.
stdout: P
(P: 4.47, Q: 4.74)

All figures here come from ChEMBL document CHEMBL1138203.
